Please go through the items and note down their IC50.
system_tested: Cathepsin K (Homo sapiens)
Sequence (P43235 whole entry): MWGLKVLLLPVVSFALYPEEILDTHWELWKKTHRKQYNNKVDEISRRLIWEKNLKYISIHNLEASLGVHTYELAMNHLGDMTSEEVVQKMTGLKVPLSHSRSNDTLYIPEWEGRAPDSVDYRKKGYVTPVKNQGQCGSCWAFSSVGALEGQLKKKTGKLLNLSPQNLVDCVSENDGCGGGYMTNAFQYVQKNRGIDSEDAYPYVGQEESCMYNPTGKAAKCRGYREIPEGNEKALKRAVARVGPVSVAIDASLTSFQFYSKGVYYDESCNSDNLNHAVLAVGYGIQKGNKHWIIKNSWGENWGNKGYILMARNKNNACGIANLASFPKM
experiment_notes: Inhibition of recombinant human cathepsin K by fluorescence assay

Exercise: Value lookup for IC50; key = CCCC[C@H](NC(=O)O[C@@H]1C(=O)N(C(=O)Nc2c(C)noc2C)CC1(C)C)C(=O)C(=O)N[C@H](C)c1ccccc1
Key: 15 nM

Exercise: Now consider CCCC[C@H](NC(=O)O[C@@H]1C(=O)N(C(=O)c2nc3ccccc3s2)CC1(C)C)C(=O)C(=O)Nc1ccn[nH]1 and answer again.
Key: 0.81 nM

Exercise: Could you do the same for CCCC[C@H](NC(=O)O[C@@H]1C(=O)N(S(=O)(=O)Cc2ccccc2)CC1(C)C)C(=O)C(=O)N[C@H](C)c1ccccc1 , please?
Key: 17 nM

Exercise: // same read-out, input: CCCC[C@H](NC(=O)O[C@@H]1C(=O)N(S(=O)(=O)c2ccccc2)CC1(C)C)C(=O)C(=O)N[C@H](C)c1ccccc1
Key: 8.3 nM

Exercise: Okay, and CCCC[C@H](NC(=O)O[C@@H]1C(=O)N(C(=O)N2CCOCC2)CC1(C)C)C(=O)C(=O)N[C@H](C)c1ccccc1 ?
Key: 16 nM

Exercise: What would you report for CCCC[C@H](NC(=O)O[C@@H]1C(=O)N(C(=O)CCCc2ccccc2)CC1(C)C)C(=O)C(=O)N[C@H](C)c1ccccc1 ?
Key: 27 nM

Exercise: Now this one: CCCC[C@H](NC(=O)O[C@@H]1C(=O)N(C(=O)c2ccc(-c3ccccc3)cc2)CC1(C)C)C(=O)C(=O)N[C@H](C)c1ccccc1
Key: 6.9 nM

Data origin, for the record: ChEMBL document CHEMBL1146061
